assay: Plasma concentrations measured by UPLC-MSMS in the case patient; format: in vivo, human; conditions: male, human, in vivo, 60 mg once per day, POD14, 96 h after last edoxaban tablet
VALUE KIND: concentration at 96 h

Check the records and state concentration at 96 h for CN1CCc2nc(C(=O)N[C@@H]3C[C@@H](C(=O)N(C)C)CC[C@@H]3NC(=O)C(=O)Nc3ccc(Cl)cn3)sc2C1 < 5 ng/mL

###

experiment: Plasma concentrations measured by UPLC-MSMS in the case patient; type: in vivo, human; conditions: male, human, in vivo, 60 mg once per day, POD10, 8 h after last edoxaban tablet (C8h); edoxaban 60 mg once per day with RFP and CAM; AKI
VALUE KIND: concentration at 8 h (µg/mL)
Please state the figure in µg/mL; there is no need to write the unit.

Check the records and state concentration at 8 h for CN1CCc2nc(C(=O)N[C@@H]3C[C@@H](C(=O)N(C)C)CC[C@@H]3NC(=O)C(=O)Nc3ccc(Cl)cn3)sc2C1 0.796

###

assay: Plasma concentrations measured by UPLC-MSMS in the case patient; type: in vivo, human; details: male, human, plasma; POD14; read-out: Plasma concentration of valsartan
VALUE KIND: concentration at 14 postoperative day (ng/mL)
Please state the figure in ng/mL; there is no need to write the unit.

Check the records and state concentration at 14 postoperative day for CCCCC(=O)N(Cc1ccc(-c2ccccc2-c2nnn[nH]2)cc1)[C@H](C(=O)O)C(C)C 1400

The reported numbers originate from paper PMC11520371.
